All values here come from paper PMC9516563.

- Tested on: IAV
- Assay type: cell-based, Influenza strain A/PR/8/34 (H1N1; PR8)
- studyConditions: read-out: IAV IC50
reportedProperty: IC50

Q) Looking for the measured IC50 of O=C(O)COc1c2c(c(OCC(=O)O)c3c1C1CC3c3cc4c(cc31)C1CC4c3ccccc31)C1CC2c2cc3c(cc21)C1CC3c2ccccc21 , can you help?
A) 70.3 µM
